test_target: Histamine H2 receptor (Homo sapiens, UniProt P25021)
Sequence (P25021 whole entry): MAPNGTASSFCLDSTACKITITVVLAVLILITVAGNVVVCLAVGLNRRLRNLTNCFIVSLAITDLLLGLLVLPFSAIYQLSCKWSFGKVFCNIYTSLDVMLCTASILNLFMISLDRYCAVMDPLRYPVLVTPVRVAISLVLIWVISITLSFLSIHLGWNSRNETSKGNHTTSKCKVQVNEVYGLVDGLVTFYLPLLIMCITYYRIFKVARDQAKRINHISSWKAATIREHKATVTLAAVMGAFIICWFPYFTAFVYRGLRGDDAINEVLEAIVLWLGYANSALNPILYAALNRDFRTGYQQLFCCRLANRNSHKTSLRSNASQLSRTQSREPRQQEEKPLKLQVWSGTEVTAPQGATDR
method_summary: Displacement of [3H]tiotidine from human recombinant histamine H2 receptor after 1.5 hrs by microbeta scintillation counting analysis
pKi: −log10 of the molar value.
metric: pKi

c1ccc(OCc2cc(OC[C@@H]3CCCN3)no2)cc1    5.29

###

test_target: Sigma non-opioid intracellular receptor 1 (Homo sapiens)
Sequence (Q99720 whole entry): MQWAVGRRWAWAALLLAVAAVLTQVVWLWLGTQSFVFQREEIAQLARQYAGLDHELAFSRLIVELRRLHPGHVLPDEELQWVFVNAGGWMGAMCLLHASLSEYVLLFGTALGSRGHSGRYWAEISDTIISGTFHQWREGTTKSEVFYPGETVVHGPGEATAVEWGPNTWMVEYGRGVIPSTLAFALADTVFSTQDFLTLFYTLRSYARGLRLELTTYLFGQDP
method_summary: Binding affinity to sigma 1 receptor
metric: Ki (nM)

COC(=O)[C@@]1(c2ccccc2)C[C@H]1CN(C)C12CC3CC(CC(C3)C1)C2    2.1
